Study target: T1, recombinant CD3D&E protein (human CD3-his tag) (human, UniProt P04234 22-105; P07766 23-126, limits assumed)
T1 construct: Analyte in Biacore; also called CD3D&E-His; CD3d&ε-His
T1 sequence (P04234 22-105 limits assumed, chain 1 of 2): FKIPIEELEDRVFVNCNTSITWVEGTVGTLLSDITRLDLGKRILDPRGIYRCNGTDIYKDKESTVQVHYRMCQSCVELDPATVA
T1 sequence (P07766 23-126 limits assumed, chain 2 of 2): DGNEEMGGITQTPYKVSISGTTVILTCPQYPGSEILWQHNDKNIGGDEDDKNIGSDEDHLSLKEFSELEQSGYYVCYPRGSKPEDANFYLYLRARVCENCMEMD
Experimental details: SPR Biacore, Ab captured on Protein A;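 further: humanized antibodies on a Protein A chip, human CD3-his analyte flowed over in serial dilutions for 3 min, dissociation tracked 120–360 s on a Biacore T200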
Measured log10(Kd) of individual entries
Record value = log10 of Kd given in µM.

Hu155A9B1-9 (antibody, V domains shown, humanized mAb) VH: EVQLQESGPGLVKPSETLSLTCTVSGGSISSYNVHWVRQPPGKGLEWMGRVRYNGDTSYNSALKSRLTISRDTSKNQFSLKLSSVTAADTAVYYCARGPYGGSSEPLFDYWGQGTMVTVSS VL: DIQMTQSPSSLSASVGDRVTITCKASQNINKYLNWFQQKPGKAPRLLIYTTNNLQTGIPSRFSGSGSGTDFTLTISSLQPEDFATYYCLQHNSGYTFGQGTKLEIK ... -1.26
Hu153A6B1-13 (antibody, V domains shown, humanized mAb) VH: EVQLQESGPGLVKPSETLSLTCTVSGGSISSYNIHWIRQPPGKGLEWIGRIRYNGDTSYNSALKSRVTISVDTSKNQFSLKLSSVTAADTAVYYCARGPYGGSREPLFDYWGQGTMVTVSS VL: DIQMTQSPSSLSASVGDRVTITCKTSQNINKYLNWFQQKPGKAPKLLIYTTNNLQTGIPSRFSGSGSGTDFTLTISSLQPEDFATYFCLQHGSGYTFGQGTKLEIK ... -1.53
Hu192A7B9-20 (antibody, V domains shown, humanized mAb) VH: EVQLQESGPGLVKPSETLSLTCTVSGGSISSYNVHWVRQPPGKGLEWIGRMRYNGDTSYNSALKSRVTISRDTSKNQFSLKLSSVTAADTAVYYCARGPRGGYYSALFDYWGQGTMVTVSS VL: DIQMTQSPSSLSASVGDRVTITCKASQNINRYLNWYQQKPGKAPKVLISIANSLQTGIPSRFSGSGSGTDFTLTISSLQPEDFATYFCLQHNSWYTFGQGTKLEIK ... -1.22
Hu155A9B1-12 (antibody, V domains shown, humanized mAb) VH: EVQLQESGPGLVKPSETLSLTCTVSGFSLTSYNVHWVRQPPGKGLEWMGRVRYNGDTSYNSALKSRLTISRDTSKNQASLKLSSVTAADTAVYYCTRGPYGGSSEPLFDYWGQGTMVTVSS VL: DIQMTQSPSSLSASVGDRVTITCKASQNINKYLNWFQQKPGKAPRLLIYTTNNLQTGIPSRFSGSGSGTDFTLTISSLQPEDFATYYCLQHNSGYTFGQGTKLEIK ... -1.29
Hu192A7B9-10 (antibody, V domains shown, humanized mAb) VH: EVQLQESGPGLVKPSETLSLTCTVSGGSISSYNVHWVRQPPGKGLEWMGRMRYNGDTSYNSALKSRLTISRDTSKNQFSLKLSSVTAADTAVYYCTRGPRGGYYSALFDYWGQGTMVTVSS VL: DIQMTQSPSSLSASVGDRVTITCKASQNINRYLNWYQQKPGKAPKLLISIANSLQTGVPSRFSGSGSGTDFTLTISSLQPEDFATYYCLQHNSWYTFGQGTKLEIK ... -0.91
Hu155A9B1-18 (antibody, V domains shown, humanized mAb) VH: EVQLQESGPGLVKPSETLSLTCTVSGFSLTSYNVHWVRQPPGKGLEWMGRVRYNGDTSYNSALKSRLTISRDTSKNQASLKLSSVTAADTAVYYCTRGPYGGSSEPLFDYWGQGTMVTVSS VL: DIQMTQSPSSLSASVGDRVTITCKASQNINKYLNWFQQKPGKAPRLLIYTTNNLQTGIPSRFSGSGSGTDFTLTISSLQPEDFATYFCLQHNSGYTFGQGTKLEIK ... -1.29

So what does the record say about log10(Kd) for Hu153A6B1-9 (antibody, V domains shown, humanized mAb) VH: EVQLQESGPGLVKPSETLSLTCTVSGGSISSYNIHWVRQPPGKGLEWMGRIRYNGDTSYNSALKSRLTISRDTSKNQFSLKLSSVTAADTAVYYCARGPYGGSREPLFDYWGQGTMVTVSS VL: DIQMTQSPSSLSASVGDRVTITCKTSQNINKYLNWFQQKPGKAPKLLIYTTNNLQTGIPSRFSGSGSGTDFTLTISSLQPEDFATYYCLQHGSGYTFGQGTKLEIK ?
-1.21

So what does the record say about log10(Kd) for Hu155A9B1-8 (antibody, V domains shown, humanized mAb; also called 155z8) VH: EVQLQESGPGLVKPSETLSLTCTVSGGSISSYNVHWVRQPPGKGLEWIGRVRYNGDTSYNSALKSRVTISRDTSKNQFSLKLSSVTAADTAVYYCARGPYGGSSEPLFDYWGQGTMVTVSS VL: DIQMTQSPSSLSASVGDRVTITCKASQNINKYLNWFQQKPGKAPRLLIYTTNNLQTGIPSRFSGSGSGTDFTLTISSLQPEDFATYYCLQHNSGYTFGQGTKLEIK ?
-1.15

So what does the record say about log10(Kd) for Hu153A6B1-17 (antibody, V domains shown, humanized mAb) VH: EVQLQESGPGLVKPSETLSLTCTVSGFSISSYNIHWVRQPPGKGLEWMGRIRYNGDTSYNSALKSRLTISRDTSKNQVSLKLSSVTAADTAVYYCTRGPYGGSREPLFDYWGQGTMVTVSS VL: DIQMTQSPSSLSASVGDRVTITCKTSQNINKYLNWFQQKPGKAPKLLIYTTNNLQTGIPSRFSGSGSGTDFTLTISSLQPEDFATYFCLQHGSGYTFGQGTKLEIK ?
-1.95

So what does the record say about log10(Kd) for Hu192A7B9-15 (antibody, V domains shown, humanized mAb) VH: EVQLQESGPGLVKPSETLSLTCTVSGGSISSYNVHWVRQPPGKGLEWMGRMRYNGDTSYNSALKSRLTISRDTSKNQFSLKLSSVTAADTAVYYCARGPRGGYYSALFDYWGQGTMVTVSS VL: DIQMTQSPSSLSASVGDRVTITCKASQNINRYLNWYQQKPGKAPKLLISIANSLQTGIPSRFSGSGSGTDFTLTISSLQPEDFATYYCLQHNSWYTFGQGTKLEIK ?
-1.39

So what does the record say about log10(Kd) for Hu155A9B1-11 (antibody, V domains shown, humanized mAb) VH: EVQLQESGPGLVKPSETLSLTCTVSGFSISSYNVHWVRQPPGKGLEWMGRVRYNGDTSYNSALKSRLTISRDTSKNQASLKLSSVTAADTAVYYCTRGPYGGSSEPLFDYWGQGTMVTVSS VL: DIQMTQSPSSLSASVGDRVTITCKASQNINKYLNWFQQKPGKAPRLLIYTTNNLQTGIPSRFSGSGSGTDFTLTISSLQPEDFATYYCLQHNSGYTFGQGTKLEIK ?
-1.36

This collection of values is drawn from patent US20240417469A1.
